Recorded values, source ChEMBL document CHEMBL1961873.

Biological target: Maternal embryonic leucine zipper kinase (Homo sapiens) (UniProt Q14680);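 further: reported figure is the mean percent inhibition of MELK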
Sequence (Q14680 whole entry, looked up): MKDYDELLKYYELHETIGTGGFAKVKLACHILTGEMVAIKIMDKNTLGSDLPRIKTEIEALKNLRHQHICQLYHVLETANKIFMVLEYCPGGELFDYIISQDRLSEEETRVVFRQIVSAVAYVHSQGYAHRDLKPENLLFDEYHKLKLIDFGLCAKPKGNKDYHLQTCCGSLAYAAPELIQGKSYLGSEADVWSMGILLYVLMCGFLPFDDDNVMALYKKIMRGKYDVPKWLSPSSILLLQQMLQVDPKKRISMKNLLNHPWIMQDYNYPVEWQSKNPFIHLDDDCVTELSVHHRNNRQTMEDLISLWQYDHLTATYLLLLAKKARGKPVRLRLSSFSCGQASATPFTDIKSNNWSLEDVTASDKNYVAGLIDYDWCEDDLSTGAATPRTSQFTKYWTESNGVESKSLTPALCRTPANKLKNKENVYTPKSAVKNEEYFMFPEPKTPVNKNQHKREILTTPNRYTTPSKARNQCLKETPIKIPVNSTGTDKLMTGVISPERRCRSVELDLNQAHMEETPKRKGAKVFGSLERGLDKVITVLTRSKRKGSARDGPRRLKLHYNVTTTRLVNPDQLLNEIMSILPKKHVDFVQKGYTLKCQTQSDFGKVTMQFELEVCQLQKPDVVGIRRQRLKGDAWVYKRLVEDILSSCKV
Conditions: at 0.1 µM
Readings of inhibition for the listed compounds
The reply should contain only the number, in %.

>>> resultvalue("O=C(Nc1n[nH]c2nc(-c3ccco3)c(Br)cc12)C1CC1")
2.96
>>> resultvalue("Nc1ncnc2occ(-c3ccc(NC(=O)Nc4cccc(C(F)(F)F)c4)cc3)c12")
3.16
>>> resultvalue("COc1cc(C)c(NC(=O)CN(C)C)cc1Nc1nc(Nc2cccc(F)c2C(N)=O)c2cc[nH]c2n1")
2.85
>>> resultvalue("CCn1c(-c2nonc2N)nc2cncc(C(=O)N3CCNCC3)c21")
6.1
>>> resultvalue("COc1cc2c(cc1Nc1nc(N3CCc4ccccc43)c3cc[nH]c3n1)N(C(=O)CN(C)C)CC2")
1.9
>>> resultvalue("COc1ccc(-c2ccncc2)cc1C(N)=O")
3.65

input: I have this compound here, Cn1cc(C=C2C(=O)Nc3cccnc32)c2ccccc21 , and I need its recorded inhibition.
output: 4.43

input: Query CCn1c(-c2nonc2N)nc2c(C#CC(C)(C)O)nc(OC[C@@H](N)c3ccccc3)cc21 next
output: 0.84

input: One more compound: CS(=O)(=O)Nc1ccc(N/C=C2\C(=O)Nc3ccccc32)cc1
output: -1.64

input: Also Cc1nn(C)c2cc(N(C)c3ccnc(Nc4cccc(S(N)(=O)=O)c4)n3)ccc12 ?
output: 4.84

input: Record: O=C1NC(=O)C(N2CCc3ccccc32)=C1c1ccc(Cl)cc1
output: 4.84

input: Also CCCN1CCC=C(c2ccc(Nc3nc(Nc4ccccc4C(N)=O)c4cc[nH]c4n3)c(C)c2)C1 , if possible.
output: 10

input: NC(=O)c1ccc(-c2nc(-c3ccccn3)c(-c3ccc4c(c3)OCO4)[nH]2)cc1 , same question.
output: 2.76

---

Biological target: Receptor-type tyrosine-protein kinase FLT3 (Homo sapiens);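 further: mean inhibition value from the GSK PKIS kinase screening set, with the assay run by Nanosyn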
Details: at 0.1 µM
In this section we review reported inhibition values for a set of molecules.
Response body: numeric value in %, unit text excluded.

>>> resultvalue("Cc1cc(O)cc(C)c1/C=C/c1cncc(-c2nn[nH]n2)c1")
2.5
>>> resultvalue("NS(=O)(=O)c1cccc(-c2ccc3c(NC(=O)C4CC4)n[nH]c3c2)c1")
0.61
>>> resultvalue("CCn1c(-c2nonc2N)nc2cncc(C(=O)N3CC[C@H](N)C3)c21")
1.58
>>> resultvalue("Nc1nc(-c2ccccn2)c(-c2ccc3ncccc3n2)s1")
8.03
>>> resultvalue("COc1cc(C)c(NC(=O)CN(C)C)cc1Nc1nc(Nc2cccc(F)c2C(N)=O)c2cc[nH]c2n1")
1.69
>>> resultvalue("CC1=C(C(=O)Nc2ccc3[nH]ncc3c2)C(c2ccc(Cl)c(Cl)c2)CC(=O)N1 (stereo not given)")
1.43

input: // inhibition lookup, key: Cc1nnc(-c2ccc(C)c(-c3ccc(C(=O)Nc4cccc(C#N)c4)cc3)c2)o1
output: -0.61

---

Target: Non-receptor tyrosine-protein kinase TNK1 (Homo sapiens) (UniProt Q13470);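 further: values are averaged percent inhibition of TNK1, compounds from the GSK published kinase inhibitor set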
Sequence (Q13470 whole entry): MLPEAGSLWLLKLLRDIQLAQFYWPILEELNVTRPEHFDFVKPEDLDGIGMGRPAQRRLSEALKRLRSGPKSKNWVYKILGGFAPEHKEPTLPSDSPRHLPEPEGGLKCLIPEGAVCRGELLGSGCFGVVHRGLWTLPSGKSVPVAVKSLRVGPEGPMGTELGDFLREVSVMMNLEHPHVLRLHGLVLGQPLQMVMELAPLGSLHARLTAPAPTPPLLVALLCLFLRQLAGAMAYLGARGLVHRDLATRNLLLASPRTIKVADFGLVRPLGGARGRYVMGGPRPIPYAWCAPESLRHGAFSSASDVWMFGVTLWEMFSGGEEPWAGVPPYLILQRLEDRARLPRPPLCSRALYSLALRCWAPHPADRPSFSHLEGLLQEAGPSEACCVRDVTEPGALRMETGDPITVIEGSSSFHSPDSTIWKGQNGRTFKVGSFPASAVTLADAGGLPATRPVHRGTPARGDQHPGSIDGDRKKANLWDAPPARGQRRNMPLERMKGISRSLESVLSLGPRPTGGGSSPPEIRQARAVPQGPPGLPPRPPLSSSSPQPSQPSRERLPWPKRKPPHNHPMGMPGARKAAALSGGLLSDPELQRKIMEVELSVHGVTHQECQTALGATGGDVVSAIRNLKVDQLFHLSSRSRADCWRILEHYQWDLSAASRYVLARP
Conditions: at 1 µM
Catalogue of molecules with associated inhibition
I only need the number, in %, no unit after it.

Some molecules with recorded inhibition:
>>> resultvalue("Nc1nc(-c2ccc3c(c2)C(=Cc2cc(Br)c(O)c(Br)c2)C(=O)N3)cs1")
37.1
>>> resultvalue("CS(=O)(=O)CCNCc1ccc(-c2ccc3ncnc(Nc4ccc(OCc5cccc(F)c5)c(C(F)(F)F)c4)c3c2)o1")
10.5
>>> resultvalue("NC(=O)c1cccc(Nc2nccc(Nc3cccc4[nH]ncc34)n2)c1")
58.3

input: Entry O=C1NC(=O)C(N2CCc3ccccc32)=C1c1ccc(Cl)cc1 : reported inhibition = ?
output: -0.43

input: Entry to check: [O-][S+]1CCN(Cc2ccc(-c3ccc4ncnc(Nc5ccc(OCc6ccccc6)c(F)c5)c4c3)o2)CC1
output: 7.01

input: Same question, COc1ccc(-c2nn3ncccc3c2-c2ccnc(Nc3ccc(Cl)c(C(F)(F)F)c3)n2)cc1 this time
output: 13.3

input: Also check CS(=O)(=O)CCN(CC#N)Cc1ccc(-c2ccc3ncnc(Nc4ccc(OCc5cccc(F)c5)c(Cl)c4)c3c2)o1
output: 23.2

input: Repeat with Fc1cccc(COc2ccc(Nc3ncnc4sc(-c5cccs5)cc34)cc2Cl)c1
output: 4.12

input: Similarly, CN1CCC(C(=O)Nc2n[nH]c3nnc(-c4ccccc4)cc23)CC1 ?
output: 7.95
